# target entity: T1, Human GIP receptor (human, UniProt P48546)
# T1 sequence: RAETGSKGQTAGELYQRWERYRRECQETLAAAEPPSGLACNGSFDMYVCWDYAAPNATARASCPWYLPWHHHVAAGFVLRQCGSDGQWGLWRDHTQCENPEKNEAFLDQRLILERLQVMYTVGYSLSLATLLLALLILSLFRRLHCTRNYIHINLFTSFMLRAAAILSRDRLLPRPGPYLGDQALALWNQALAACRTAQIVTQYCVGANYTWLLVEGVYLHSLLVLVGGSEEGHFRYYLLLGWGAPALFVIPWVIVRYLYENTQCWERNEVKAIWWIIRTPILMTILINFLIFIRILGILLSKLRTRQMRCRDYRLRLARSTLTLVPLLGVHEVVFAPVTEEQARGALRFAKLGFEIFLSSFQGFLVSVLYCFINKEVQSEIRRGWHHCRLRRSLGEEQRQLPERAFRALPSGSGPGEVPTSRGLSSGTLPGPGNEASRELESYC
# method description: cell-based or functional assay
Starred links: 1 amine or outer side, 2 acyl side, 3 side chain; linkers in the order of their positions; H or OH if unused. Non-standard residues stand in square brackets, D forms with d. Groups on a side chain read outwards from the residue. γGlu = O=C(O)[C@H](CCC(=O)[*:2])N[*:1]; C(:O)(CH2)nR3 = not defined here; Aib = CC(C)(N)C(=O)O
readout: EC50 (nM), cAMP cell-based agonist assay
Field: numeric (nM). Do not append units.

Example cases with answers are listed next.
binder	unit tag	EC50 (nM), cAMP cell-based agonist assay
Peptide No. 10 (reading uncertain; also: K* acyl n and R3 not given here, acetate salt, printed as Y-Aib-E-G-T-F-T-S-D-Y-S-I-Aib-L-D-K-I-A-Q-K*-AFVQWLLAGGPSCNTATCATQRLANFLVHSSNNFGPILPPTNVGSNTY-NH2) peptide: Y[Aib]EGTFTSDYSI[Aib]LDKIAQK([γGlu-γGlu-C(:O)(CH2)nR3])AFVQWLLAGGPSCNTATCATQRLANFLVHSSNNFGPILPPTNVGSNTY-NH2	nM	0.05
Peptide No. 17 (reading uncertain; also: K* n and R3 not given here, acetate salt) peptide: [dY]AEGTFTSDYSIALDKIAQQAFVQWLLAGGPSCNTATCVLGRLSQELHRLQTYPRTNTGK([γGlu-γGlu-C(:O)(CH2)nR3])NTY-NH2	nM	0.81

**Query** # get_value(readout='EC50 (nM), cAMP cell-based agonist assay', item= Peptide No. 15 (reading uncertain; also: K* n and R3 not given here, acetate salt) peptide: Y[dA]EGTFTSDYSIALDKIAQQAFVQWLLAGGPSCNTATCVLGRLSQELHRLQTYPRTNTGK([γGlu-γGlu-C(:O)(CH2)nR3])NTY-NH2 )
**Result** 0.13
